All figures here come from patent US8802673B2.

molecular target: UniProt:Q923Y8; test: Radioligand binding assay on mouse TAAR1; settings: mouse TAAR1 (first value of the cell), HEK-293 membranes; read-out: Ki (μM) mouse/rat
Kindly state Ki for each of the entries shown.
Answers are plain numbers, in µM.

# Molecule, Ki / µM
rows = [
    ("Cc1cc(Br)cnc1Nc1ccc([C@H]2CNCCO2)cc1", 0.0372),
]

# batch: return Ki for each of the 8 molecules below
1. Cc1cc([C@H]2CNCCO2)ccc1Nc1ncc(C(F)(F)F)cn1
2. CCc1cnc(Nc2ccc([C@H]3CNCCO3)cc2F)nc1
3. FC(F)(F)c1ccc(CNc2ccc([C@H]3CNCCO3)cc2)cn1
4. c1coc(-c2cnc(Nc3ccc([C@H]4CNCCO4)cc3)nc2)c1
5. FC(F)(F)c1cnc(Nc2ccc([C@@H]3CNCCO3)cc2Cl)nc1
6. FC(F)(F)COc1cnc(Nc2ccc([C@@H]3CNCCO3)cc2)nc1
7. Cc1cc(C2CNCCO2)ccc1Nc1ccc(Br)cn1 (racemic)
8. CCOc1cc(Nc2ccc([C@H]3CNCCO3)cc2)cnc1Cl

1: 0.112; 2: 0.0034; 3: 0.047; 4: 0.0009; 5: 0.0077; 6: 0.0037; 7: 0.0024; 8: 0.0118

Quick batch: Ki for everything below.
1. CCc1cnc(Nc2ccc([C@H]3CNCCO3)cc2)nc1C
2. Cc1cnc(Nc2ccc([C@H]3CNCCO3)cc2)nc1
3. Fc1cc(Nc2ncc(C3CC3)cn2)ccc1[C@@H]1CNCCO1
4. CC(C)Oc1cnc(Nc2ccc([C@@H]3CNCCO3)cc2)nc1
5. Clc1ccc(CNc2ccc([C@H]3CNCCO3)cc2)cn1
6. Clc1ccc2ncnc(Nc3ccc([C@H]4CNCCO4)cc3)c2c1
7. Fc1cc(Nc2ccc([C@H]3CNCCO3)cc2)cnc1Cl

[0.0171, 0.0054, 0.0025, 0.0174, 0.0357, 0.005, 0.0026]

Below is a list of molecules. For each, state its recorded Ki.
1. Clc1cc(Nc2ccc([C@@H]3CNCCO3)cc2)ncn1
2. Clc1cnc(Nc2ccc([C@@H]3CNCCO3)cc2)cn1
3. N#Cc1cnc(Nc2ccc([C@H]3CNCCO3)cc2)nc1
4. CCc1cnc(Nc2ccc([C@@H]3CCCNC3)cc2)nc1
5. O=[N+]([O-])c1cnc(Nc2ccc([C@H]3CNCCO3)cc2)nc1
6. Fc1cc(Nc2ncc(C(F)(F)F)cn2)ccc1[C@H]1CNCCO1
7. CNC(=O)c1cnc(Nc2ccc([C@@H]3CNCCO3)cc2)nc1
8. COc1cnc(Nc2ccc([C@H]3CNCCO3)cc2)nc1

0.0231
0.0026
0.0276
0.0038
0.0141
0.0031
1.34
0.0055

// each molecule listed below needs its Ki
1. Fc1cnc(Nc2ccc([C@@H]3CNCCO3)cc2)nc1C1CC1
2. Cn1cc(Br)c(Nc2ccc(C3CNCCO3)cc2)n1 (racemic)
3. Brc1cnc(Nc2ccc([C@H]3CNCCO3)cc2)c(Br)c1
4. Fc1cc(Nc2ncc(F)c(OCC(F)(F)F)n2)ccc1[C@@H]1CNCCO1
5. Clc1ccc(Nc2ccc([C@@H]3CNCCO3)cc2)nc1
6. Brc1ccc(Nc2ccc([C@H]3CNCCO3)cc2)nc1

1: 0.0031; 2: 0.418; 3: 0.0591; 4: 0.0032; 5: 0.0014; 6: 0.0015

For each entry beneath this line, provide reported Ki.
1. FC(F)(F)COc1cnc(Nc2ccc([C@@H]3CNCCO3)c(Cl)c2)nc1
2. FC(F)Oc1cnc(Oc2cnc(Nc3ccc([C@@H]4CNCCO4)cc3)nc2)nc1

0.0022
0.0088

Dear reader, for each entry below, please note its Ki.
1. COc1cc(OC)nc(Nc2ccc([C@@H]3CNCCO3)cc2)n1
2. Fc1cc(C2CNCCO2)ccc1Nc1ncc(C(F)(F)F)cn1 (racemic)
3. FC(F)(F)COc1ccnc(Nc2ccc([C@@H]3CNCCO3)c(Cl)c2)n1
4. c1ccc(Cn2ccc(Nc3ccc([C@@H]4CNCCO4)cc3)n2)cc1
5. Cc1cc(C2CNCCO2)ccc1Nc1ncc(Cl)cn1 (racemic)
6. Fc1cc(Nc2ncc(Cl)cn2)ccc1[C@@H]1CNCCO1
7. Fc1cc([C@@H]2CNCCO2)ccc1Nc1ncc(Cl)cn1

[0.0094, 0.0058, 0.0042, 0.002, 0.0162, 0.0047, 0.0051]

====

biological target: UniProt Q923Y8
pKd: −log10 of the molar value.
Metric: pKd

Returns the measured pKd for the input molecule. Input: CCN(C[C@H]1COC(N)=N1)c1ccccc1 [reference compound]
~9.15

====

biological target: UniProtKB Q923Y9; assay: Radioligand binding assay on rat TAAR1; conditions: rat TAAR1 (second value of the cell), HEK-293 membranes; read-out: Ki (μM) mouse/rat
Sequence (Q923Y9 whole entry): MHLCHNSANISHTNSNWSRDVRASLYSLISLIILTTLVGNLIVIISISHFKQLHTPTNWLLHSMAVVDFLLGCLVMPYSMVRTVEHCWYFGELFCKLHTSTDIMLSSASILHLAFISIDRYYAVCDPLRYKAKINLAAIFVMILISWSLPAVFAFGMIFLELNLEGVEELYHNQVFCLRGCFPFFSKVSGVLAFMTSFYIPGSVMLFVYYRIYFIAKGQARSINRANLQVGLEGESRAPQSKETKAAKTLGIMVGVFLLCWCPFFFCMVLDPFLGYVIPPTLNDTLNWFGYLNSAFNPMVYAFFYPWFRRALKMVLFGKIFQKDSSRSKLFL
Give Ki for every item shown.
One number for each entry, in µM.

Below, each entry is followed by its recorded Ki result.
# Smi, Unit info, Ki
measured = [
    ("Cc1cc([C@H]2CNCCO2)ccc1Nc1ncc(C(F)(F)F)cn1", "µM", 1.35),
    ("Cc1cc(Nc2ccc([C@H]3CNCCO3)cc2)ncc1Cl", "µM", 0.0222),
]

Using the record for `COc1ccc(-c2cnc(Nc3ccc([C@H]4CNCCO4)cc3)nc2)cc1OC` , report its Ki.
0.0129

====

target: mouse TAAR1 (Mus musculus (Mouse), UniProt Q923Y8); test: Radioligand binding assay on mouse TAAR1; conditions: mouse TAAR1 (first value of the cell), HEK-293 membranes; read-out: Ki (μM) mouse/rat
Sequence (Q923Y8 whole entry): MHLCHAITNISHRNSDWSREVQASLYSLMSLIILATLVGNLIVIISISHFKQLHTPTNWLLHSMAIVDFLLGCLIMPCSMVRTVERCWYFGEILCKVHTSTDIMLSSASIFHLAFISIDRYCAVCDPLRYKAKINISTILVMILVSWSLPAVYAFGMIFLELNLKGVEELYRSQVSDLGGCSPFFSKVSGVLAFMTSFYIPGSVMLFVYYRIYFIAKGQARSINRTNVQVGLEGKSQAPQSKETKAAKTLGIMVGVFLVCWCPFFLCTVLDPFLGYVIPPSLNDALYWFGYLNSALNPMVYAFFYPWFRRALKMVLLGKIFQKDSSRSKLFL
Metric: Ki (µM)
Answers are plain numbers, in µM.

# Molecule, Ki, µM
rows = [
    ("Fc1cnc(Nc2ccc([C@H]3CNCCO3)cc2)nc1 [Example 14]", 0.0122),
    ("Fc1cncc(Nc2ccc([C@H]3CNCCO3)cc2)c1 [Example 43]", 0.0269),
    ("c1cc([C@@H]2CNCCO2)ccc1Nc1ncc(C2CC2)cn1 [Example 86]", 0.0024),
    ("Clc1nc2ccccc2cc1CNc1ccc([C@H]2CNCCO2)cc1 [Example 51]", 0.0363),
    ("CCc1cnc(Nc2ccc([C@H]3CNCCO3)cc2)nc1 [Example 15]", 0.0028),
]

Hi, could you look up Ki for each item in my list?
1. Fc1cc(Nc2nccc(OCC(F)(F)F)n2)ccc1[C@@H]1CNCCO1 [Example 208]
2. Cn1ccc(Nc2ccc(C3CNCCO3)cc2)n1 (racemic) [Example 140]

1. 0.003
2. 0.0386

====

molecular target: mouse TAAR1 (Mus musculus (Mouse), UniProt Q923Y8); assay: Radioligand binding assay on mouse TAAR1; conditions: mouse TAAR1 (first value of the cell), HEK-293 membranes; read-out: Ki (μM) mouse/rat
Metric: log10 of Ki (log10 of the value in µM)
Recorded Ki (log10, µM)

# Compound, log10 of Ki
records = [
    ("Clc1ccc(Nc2ccc([C@@H]3CNCCO3)cc2)cn1", -2.13),
    ("FC(F)(F)Oc1ccc(CNc2ccc([C@H]3CNCCO3)cc2)cc1", -1.91),
    ("COc1cc(Cl)nc(Nc2ccc([C@@H]3CNCCO3)cc2)n1", -2.24),
    ("CCOc1cnc(Nc2ccc(C3CNCCO3)cc2F)nc1 (racemic)", -2.28),
    ("Cc1ccc(Nc2ccc([C@H]3CNCCO3)cc2)nn1", -2.21),
    ("FC(F)(F)c1ncc(Nc2ccc([C@@H]3CNCCO3)cc2)cn1", -2.02),
    ("c1cc([C@H]2CNCCO2)ccc1Nc1ccc2c(c1)OCO2", -1.88),
    ("FC(F)(F)c1ccc(Nc2ccc([C@H]3CNCCO3)cc2)nc1", -2.82),
    ("Cc1cc(C)nc(Nc2ccc([C@@H]3CNCCO3)cc2)n1", -1.84),
    ("c1ccc(CCNc2ccc([C@H]3CNCCO3)cc2)cc1", -1.58),
]

Each of the following entries comes with a recorded value; kindly state log10 of Ki for each.
1. Clc1ccc(Nc2ccc(C3CNCCO3)cn2)nc1 (racemic)
2. Clc1cnc(Nc2ccc([C@H]3CNCCO3)cc2)nc1
3. FC(F)(F)c1ccc(CNc2ccc([C@H]3CNCCO3)cc2)cc1
4. FC(F)(F)C(Nc1ccc(CCC2CCCNC2)cc1)c1ccc(Cl)cc1 (racemic)
5. FC(F)(F)c1cc(Nc2ccc([C@H]3CNCCO3)cc2)ncc1Cl
6. CC(Nc1ccc([C@H]2CNCCO2)cc1)c1ccc(Cl)cc1 (mixture of isomers)
7. Clc1ccc(Nc2ccc([C@H]3CNCCO3)cc2)nc1

-1.71
-2.39
-1.92
-0.91
-3.10
-0.28
-2.96

For every record below, what is its log10 of Ki?
1. FC(F)(F)c1cnc(Nc2ccc([C@H]3CNCCO3)cc2Cl)nc1
2. N#Cc1ccc(CNc2ccc([C@H]3CNCCO3)cc2)cc1

-1.61
-1.29

Below are 5 compounds. Give each one its log10 of Ki.
1. Brc1cccc2nc(Nc3ccc([C@H]4CNCCO4)cc3)ccc12
2. c1cc([C@H]2CNCCO2)ccc1Nc1ncc(C2CC2)cn1
3. FC(F)(F)c1cccnc1Nc1ccc([C@H]2CNCCO2)cc1
4. Clc1cc(Nc2ncc(C3CC3)cn2)ccc1[C@H]1CNCCO1
5. CNC(=O)c1cnc(Nc2ccc([C@H]3CNCCO3)cc2)nc1

1. -2.92
2. -2.77
3. -0.57
4. -2.42
5. 0.01

Record log10 of Ki for all entries; do not skip any.
1. Cc1cnc(Nc2ccc([C@@H]3CNCCO3)cc2)cn1
2. Clc1ccc(CCNc2ccc([C@H]3CNCCO3)cc2)cc1
3. Cc1cc(Nc2ccc([C@H]3CNCCO3)cc2)ncc1Br
4. FS(F)(F)(F)(F)c1ccc(Nc2ccc([C@@H]3CNCCO3)cc2)cc1
5. c1cc(Nc2ccc(C3CNCCO3)cc2)[nH]n1 (racemic)
6. FC(F)(F)c1cc(Nc2ccc([C@H]3CNCCO3)cc2)c2cccc(C(F)(F)F)c2n1
7. FC(F)(F)c1cnc(Nc2ccc([C@@H]3CNCCO3)cc2)nc1
8. c1ccc2cc(Nc3ccc([C@H]4CNCCO4)cc3)ccc2c1

[-1.88, -2.38, -3.30, -3.00, -0.22, -1.58, -2.24, -3.15]
